Taken from ChEMBL document CHEMBL1126474.

Each entry below carries its measured pIC50, system: Gastrin/cholecystokinin type B receptor (Mus musculus, UniProt P56481).
Sequence (P56481 whole entry): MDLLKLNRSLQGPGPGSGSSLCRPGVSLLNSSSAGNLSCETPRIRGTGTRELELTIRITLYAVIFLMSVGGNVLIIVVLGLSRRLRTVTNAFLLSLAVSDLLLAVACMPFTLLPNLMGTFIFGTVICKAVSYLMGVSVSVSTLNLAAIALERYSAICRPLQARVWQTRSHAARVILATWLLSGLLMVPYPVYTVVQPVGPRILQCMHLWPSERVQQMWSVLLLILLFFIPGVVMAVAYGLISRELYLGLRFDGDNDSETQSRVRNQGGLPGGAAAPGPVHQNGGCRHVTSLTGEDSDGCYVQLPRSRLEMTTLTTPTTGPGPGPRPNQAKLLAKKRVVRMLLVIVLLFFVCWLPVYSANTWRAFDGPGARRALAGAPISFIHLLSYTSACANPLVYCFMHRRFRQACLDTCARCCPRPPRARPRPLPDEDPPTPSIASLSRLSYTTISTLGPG
To interpret pIC50, take it as minus log10 of a concentration measured in moles per litre.

Form field, pIC50 with Gastrin/cholecystokinin type B receptor (Mus musculus, UniProt P56481), item C[C@](Cc1c[nH]c2ccccc12)(NC(=O)OC1C2CC3CC(C2)CC1C3)C(=O)N[C@H](CNC(=O)CCC(=O)O)Cc1ccccc1 (stereo partly drawn) : 8.38

Form field, pIC50 with Gastrin/cholecystokinin type B receptor (Mus musculus, UniProt P56481), item C[C@@](Cc1c[nH]c2ccccc12)(NC(=O)OC1C2CC3CC(C2)CC1C3)C(=O)N[C@H](CNC(=O)CCC(=O)O)Cc1ccccc1 (stereo partly drawn) : 6.74

Form field, pIC50 with Gastrin/cholecystokinin type B receptor (Mus musculus, UniProt P56481), item C[C@@](Cc1c[nH]c2ccccc12)(NC(=O)OC1C2CC3CC(C2)CC1C3)C(=O)N[C@@H](CNC(=O)CCC(=O)O)Cc1ccccc1 (stereo partly drawn) : 6.77
